The measurements presented in this section are drawn from patent US20240084003A1.

System name: T1, murine CD22 protein (ACROBiosystems, SI2-M52Ha) (murine, UniProt P35329 22-708)
T1 construct: extracellular domain; also called murine CD22-ECD; murine CD22-ECD-His
T1 sequence (looked up): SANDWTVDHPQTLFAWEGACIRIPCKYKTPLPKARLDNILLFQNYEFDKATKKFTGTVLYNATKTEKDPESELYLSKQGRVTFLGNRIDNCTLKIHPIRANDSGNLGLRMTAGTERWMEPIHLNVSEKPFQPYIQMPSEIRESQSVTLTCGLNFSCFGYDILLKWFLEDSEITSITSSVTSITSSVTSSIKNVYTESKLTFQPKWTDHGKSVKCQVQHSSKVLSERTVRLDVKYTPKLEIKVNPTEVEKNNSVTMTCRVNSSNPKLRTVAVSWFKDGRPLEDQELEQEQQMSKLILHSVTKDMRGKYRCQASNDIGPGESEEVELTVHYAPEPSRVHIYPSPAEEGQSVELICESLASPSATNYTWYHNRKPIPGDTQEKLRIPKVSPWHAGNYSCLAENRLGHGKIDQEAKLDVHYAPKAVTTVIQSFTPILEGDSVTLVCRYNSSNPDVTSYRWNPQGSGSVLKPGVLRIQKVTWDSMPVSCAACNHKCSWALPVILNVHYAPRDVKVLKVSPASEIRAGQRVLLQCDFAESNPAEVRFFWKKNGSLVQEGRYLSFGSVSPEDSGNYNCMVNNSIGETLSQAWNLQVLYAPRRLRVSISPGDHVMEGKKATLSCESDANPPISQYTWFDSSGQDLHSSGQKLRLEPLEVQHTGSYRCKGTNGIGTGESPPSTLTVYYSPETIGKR
Assay details: ELISA, coated murine CD22, 0.0001 nM Ab
Protocol: In order to detect the binding activity of CD22 human-murine chimeric antibodies to CD22 protein, the purified human CD22-ECD-His protein obtained in Example 2 was diluted with PBS to a final concentration of 2 μg/mL, and then added to 96-well ELISA plate at 100 μl/well. The plate was sealed with plastic film and incubated overnight at 4° C., the plate was washed 2 times with PBS the next day, and then a blocking solution [PBS+2% (w/w) BSA] was added for blocking at room temperature for 2 hours. […]
Let's look at some binders and their measured OD450.
The answer is to be given in OD450; state only the numeric part.

A selection of reference data follows.
Binder: F2.205.9 human-murine chimeric antibody (antibody, human IgG1, lambda, V domains shown, Chimeric, human IgG1 / lambda; VL tied by name) VH: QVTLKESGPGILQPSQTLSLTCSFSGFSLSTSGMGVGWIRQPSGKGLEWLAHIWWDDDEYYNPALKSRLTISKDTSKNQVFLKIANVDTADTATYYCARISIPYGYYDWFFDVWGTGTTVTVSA VL: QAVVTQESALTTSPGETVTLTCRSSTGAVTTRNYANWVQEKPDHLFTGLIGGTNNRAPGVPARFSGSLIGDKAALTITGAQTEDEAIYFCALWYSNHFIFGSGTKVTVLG
Unit abbreviation: OD450
OD450: 0.05

Binder: F2.99.1 human-murine chimeric antibody (antibody, human IgG1, lambda, V domains shown, Chimeric, human IgG1 / lambda; VL tied by name) VH: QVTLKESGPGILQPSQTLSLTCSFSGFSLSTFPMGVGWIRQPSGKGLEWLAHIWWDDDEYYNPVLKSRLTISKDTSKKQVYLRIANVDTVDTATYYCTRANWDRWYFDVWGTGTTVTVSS VL: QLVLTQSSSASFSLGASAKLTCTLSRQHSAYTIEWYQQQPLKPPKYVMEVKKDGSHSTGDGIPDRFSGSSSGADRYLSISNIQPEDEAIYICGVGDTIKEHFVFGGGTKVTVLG
Unit abbreviation: OD450
OD450: 0.05

Moving on to another binder below.
Quick one: OD450 for F2.180.16 human-murine chimeric antibody (antibody, human IgG1, lambda, V domains shown, Chimeric, human IgG1 / lambda) VH: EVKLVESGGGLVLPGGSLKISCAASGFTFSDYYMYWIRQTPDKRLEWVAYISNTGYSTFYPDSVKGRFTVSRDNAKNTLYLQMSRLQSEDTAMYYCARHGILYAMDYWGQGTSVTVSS VL: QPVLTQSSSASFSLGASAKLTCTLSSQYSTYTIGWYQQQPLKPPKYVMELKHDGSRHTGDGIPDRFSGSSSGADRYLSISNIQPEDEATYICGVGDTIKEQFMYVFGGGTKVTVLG ? 0.07
